Measured hERG current change (%, negative = inhibition) at 10uM by item
- TEST_SYSTEM: human ether-à-go-go-related gene (hERG) potassium channel (human)
- ASSAY_PROTOCOL: primary screen, population patch clamp on CHO cells stably expressing hERG; higher = less effect of the substance
Screen size: about 310,000 compounds; about 14,000 (4.5%) showed an effect of 50% or more. Effects have a minus sign here. For the sample, strong results were picked, then their nearest neighbours and some compounds at random.
MEASUREMENT_NAME: hERG current change (%, negative = inhibition) at 10uM (%)

- COMPOUND: "CCc1ccc2nc(NC(=O)Cn3cnc4ccccc4c3=O)sc2c1"
  NUMERIC_READOUT: 9.75
- COMPOUND: "Cc1ccc(S(=O)(=O)C2(C(=O)N3CCCCCC3)CC2)cc1"
  NUMERIC_READOUT: -11.6
- COMPOUND: "CC(=O)c1c(C)[nH]c(C(=O)N2c3ccccc3CC2C)c1C (stereo not drawn)"
  NUMERIC_READOUT: 5.33
- COMPOUND: "O=C(Nc1ccccc1)OCc1ccccn1"
  NUMERIC_READOUT: 10.8
- COMPOUND: "O=C(NN1CCOCC1)c1cn(-c2ccccc2)nc1-c1cccs1"
  NUMERIC_READOUT: -1.47
- COMPOUND: "CCCCCN(C(=O)NC(=O)NC(C)CC)S(C)(=O)=O (stereo not drawn)"
  NUMERIC_READOUT: 9.23

====

- TEST_SYSTEM: human ether-à-go-go-related gene (hERG) potassium channel (human, UniProt Q12809);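 further: peak tail current of the secondary pulse compared with the same well before compound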
- Sequence (Q12809 whole entry, looked up): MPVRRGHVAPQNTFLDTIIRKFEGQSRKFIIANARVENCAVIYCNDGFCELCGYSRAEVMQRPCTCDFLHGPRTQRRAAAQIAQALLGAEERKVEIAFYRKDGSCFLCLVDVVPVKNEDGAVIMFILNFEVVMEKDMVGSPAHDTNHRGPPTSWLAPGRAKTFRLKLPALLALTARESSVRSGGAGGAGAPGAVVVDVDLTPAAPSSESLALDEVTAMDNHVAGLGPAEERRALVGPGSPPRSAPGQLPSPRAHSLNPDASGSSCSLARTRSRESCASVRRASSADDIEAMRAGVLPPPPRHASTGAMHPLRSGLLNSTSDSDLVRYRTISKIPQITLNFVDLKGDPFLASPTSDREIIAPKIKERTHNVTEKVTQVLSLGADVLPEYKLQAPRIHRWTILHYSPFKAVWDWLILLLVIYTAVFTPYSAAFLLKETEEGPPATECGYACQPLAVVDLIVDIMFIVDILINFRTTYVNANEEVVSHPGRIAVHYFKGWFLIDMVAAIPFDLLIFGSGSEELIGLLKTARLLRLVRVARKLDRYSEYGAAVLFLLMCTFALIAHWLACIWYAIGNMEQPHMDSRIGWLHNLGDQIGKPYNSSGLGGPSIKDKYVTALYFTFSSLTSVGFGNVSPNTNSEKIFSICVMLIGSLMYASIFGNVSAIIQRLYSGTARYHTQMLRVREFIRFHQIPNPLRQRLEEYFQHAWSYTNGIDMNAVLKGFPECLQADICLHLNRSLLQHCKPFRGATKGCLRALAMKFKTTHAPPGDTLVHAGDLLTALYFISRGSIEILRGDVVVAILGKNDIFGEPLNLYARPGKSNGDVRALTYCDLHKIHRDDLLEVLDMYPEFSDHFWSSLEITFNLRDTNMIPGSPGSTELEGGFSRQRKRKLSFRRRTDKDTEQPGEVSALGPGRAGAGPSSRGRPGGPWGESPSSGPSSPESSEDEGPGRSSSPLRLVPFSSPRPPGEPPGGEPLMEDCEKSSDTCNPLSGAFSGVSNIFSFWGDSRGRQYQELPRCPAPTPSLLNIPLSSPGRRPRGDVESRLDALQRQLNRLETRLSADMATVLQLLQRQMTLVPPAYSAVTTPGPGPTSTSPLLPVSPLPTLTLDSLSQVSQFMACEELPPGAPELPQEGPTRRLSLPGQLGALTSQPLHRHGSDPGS
- ASSAY_PROTOCOL: primary screen, population patch clamp on CHO cells stably expressing hERG; higher = less effect of the substance
Among all 310,000 compounds or so, about 14,000 (4.5%) showed an effect of 50% or more. The effect is printed as a negative number. The sample as a whole holds a higher share of strong results than the screen did.
Kind request: treat -20% as inclusive, so hERG current change (%, negative = inhibition) at 10uM at -20% or higher is label 1, anything lower is label 0.

- SMILES_INPUT: "CCCOc1ccc(C2=CSC3=NCCN23)cc1Cl"
  ANSWER_LABEL: "label 0"
- SMILES_INPUT: "Cc1ccc(CN2CCN(/N=C/c3cccs3)CC2)cc1"
  ANSWER_LABEL: "label 0"
- SMILES_INPUT: "COc1ccccc1N1CCN(/N=C\\C(Br)=C\\c2ccccc2)CC1"
  ANSWER_LABEL: "label 1"
- SMILES_INPUT: "CCCOc1ccc(C2=CSC3=NCCN23)cc1.Cl"
  ANSWER_LABEL: "label 0"
- SMILES_INPUT: "COc1ccc(C2=CSC3=NCCN23)cc1Cl"
  ANSWER_LABEL: "label 1"
- SMILES_INPUT: "CCOc1ccc(C2=CSC3=NCCN23)cc1Cl"
  ANSWER_LABEL: "label 0"
- SMILES_INPUT: "Cc1ccc(CN2CCC(c3cc(-c4cccs4)n[nH]3)CC2)cc1"
  ANSWER_LABEL: "label 0"
- SMILES_INPUT: "CC(C)(C)OC(=O)N1CCC(c2cc(-c3cccs3)n[nH]2)CC1"
  ANSWER_LABEL: "label 1"
- SMILES_INPUT: "O=[N+]([O-])c1ccc(C2=CSC3=NCCN23)cc1"
  ANSWER_LABEL: "label 0"
- SMILES_INPUT: "CCOC(=O)CN1CCC(c2cc(-c3ccc(Cl)cc3)n[nH]2)CC1"
  ANSWER_LABEL: "label 1"
- SMILES_INPUT: "Clc1ccc(-c2cc(C3CCNCC3)[nH]n2)cc1"
  ANSWER_LABEL: "label 1"

====

- TEST_SYSTEM: human ether-à-go-go-related gene (hERG) potassium channel (human, UniProt Q12809);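 further: peak tail current of the secondary pulse compared with the same well before compound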
- ASSAY_PROTOCOL: primary screen, population patch clamp on CHO cells stably expressing hERG; higher = less effect of the substance
Among all 310,000 compounds or so, about 14,000 (4.5%) showed an effect of 50% or more. Effects have a minus sign here. Many of the other results were omitted from the sample, so strong results are more common in it than they were.
MEASUREMENT_NAME: hERG current change (%, negative = inhibition) at 10uM (%)

- SMILES_INPUT: "C=C(Cl)COc1ccc2c(CCCC)cc(=O)oc2c1"
  UNIT_ABBREV: "%"
  NUMERIC_READOUT: -24.9
- SMILES_INPUT: "COc1ccc(-c2cc(-c3ccccc3)no2)cc1"
  UNIT_ABBREV: "%"
  NUMERIC_READOUT: 9.77
- SMILES_INPUT: "COc1ccc(N(CC(=O)NC(C)C)S(=O)(=O)c2ccc(NC(C)=O)cc2)cc1"
  UNIT_ABBREV: "%"
  NUMERIC_READOUT: 2.29
- SMILES_INPUT: "Cc1c(Nc2nc3ccccc3nc2NS(=O)(=O)c2cccs2)c(=O)n(-c2ccccc2)n1C"
  UNIT_ABBREV: "%"
  NUMERIC_READOUT: 1.13
- SMILES_INPUT: "Cc1cccc(N(CC(=O)NCCSCc2ccccc2)S(C)(=O)=O)c1C"
  UNIT_ABBREV: "%"
  NUMERIC_READOUT: -17.4

====

- TEST_SYSTEM: human ether-à-go-go-related gene (hERG) potassium channel (human);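 further: peak tail current of the secondary pulse compared with the same well before compound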
- ASSAY_PROTOCOL: primary screen, population patch clamp on CHO cells stably expressing hERG; higher = less effect of the substance
Hit rate of the full screen: of about 310,000 compounds, about 14,000 (4.5%) showed an effect of 50% or more. The effect is printed as a negative number. The sample holds strong results, similar compounds and a random draw of the others, so the mix is not that of the screen.
MEASUREMENT_NAME: hERG current change (%, negative = inhibition) at 10uM (%)

- MOLECULE: "Cc1cccc(NC(=O)c2nc[nH]c2C(=O)NCC(=O)OCc2ccccc2)c1"
  NUMERIC_READOUT: 9.54
- MOLECULE: "Cc1c(OC(C)C(=O)NCC(O)c2ccccc2)ccc2c3c(c(=O)oc12)CCC3 (stereo not shown)"
  NUMERIC_READOUT: -13.3
- MOLECULE: "NC(=O)NC1NC(=O)NC1=O (stereo not shown)"
  NUMERIC_READOUT: 11.9
- MOLECULE: "COC(=O)C1=C(c2ccc3ccccc3c2)C[C@@H]2CC[C@H]1N2C(=O)NCCCOC(C)C"
  NUMERIC_READOUT: -7.68
- MOLECULE: "O=C(/C=C/c1ccc(OC2CSC2)cc1)c1ccccc1"
  NUMERIC_READOUT: 10.1
- MOLECULE: "Cl.NCCc1ccc(OCc2ccccc2)c(OCc2ccccc2)c1"
  NUMERIC_READOUT: -22.1
- MOLECULE: "Cc1nc(SCC(=O)N2CCCCCC2)[nH]c(=O)c1C"
  NUMERIC_READOUT: 19.5
- MOLECULE: "COc1cc(NC(=O)NNC(=O)c2cc3occc3n2C)cc(OC)c1OC"
  NUMERIC_READOUT: 26.1
- MOLECULE: "Cc1cc(C)n(-c2ccc(C(=O)OCC(=O)Nc3ccc([N+](=O)[O-])cc3)cc2)n1"
  NUMERIC_READOUT: -10.6
- MOLECULE: "O=C(C1CCCN(CCCc2ccccc2)C1)N1CCCCCC1.O=C(O)C(=O)O (stereo not shown)"
  NUMERIC_READOUT: -46.2

====

- TEST_SYSTEM: human ether-à-go-go-related gene (hERG) potassium channel (human);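 further: peak tail current of the secondary pulse compared with the same well before compound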
- ASSAY_PROTOCOL: primary screen, population patch clamp on CHO cells stably expressing hERG; higher = less effect of the substance
Among all 310,000 compounds or so, about 14,000 (4.5%) showed an effect of 50% or more. Effects have a minus sign here. For the sample, strong results were picked, then their nearest neighbours and some compounds at random.
Kind request: treat -10% as inclusive, so hERG current change (%, negative = inhibition) at 10uM at -10% or higher is met, anything lower is not met.

- SMILES_INPUT: "O=C(CN1CCN(S(=O)(=O)c2ccc(Cl)cc2)CC1)c1ccc(O)c(O)c1"
  TEST_SYSTEM: "human ether-à-go-go-related gene (hERG) potassium channel (human)"
  ANSWER_LABEL: "not met"
- SMILES_INPUT: "O=C(CN1CCN(S(=O)(=O)c2cc(Cl)ccc2Cl)CC1)c1ccc(O)c(O)c1"
  TEST_SYSTEM: "human ether-à-go-go-related gene (hERG) potassium channel (human)"
  ANSWER_LABEL: "met"
- SMILES_INPUT: "N#C/C(=C\\c1cccnc1)c1nc2ccccc2[nH]1"
  TEST_SYSTEM: "human ether-à-go-go-related gene (hERG) potassium channel (human)"
  ANSWER_LABEL: "not met"
- SMILES_INPUT: "O=C(CN1CCN(S(=O)(=O)c2ccc(Br)cc2)CC1)c1ccc(O)c(O)c1"
  TEST_SYSTEM: "human ether-à-go-go-related gene (hERG) potassium channel (human)"
  ANSWER_LABEL: "not met"
- SMILES_INPUT: "CCCOc1ccc(NC2=CC(=O)CC(C)(C)C2)cc1"
  TEST_SYSTEM: "human ether-à-go-go-related gene (hERG) potassium channel (human)"
  ANSWER_LABEL: "met"

Hello, the source for this data is paper PMC4336329, in case you need it.
